The measured values listed here are drawn from ChEMBL document CHEMBL5608141.

# System: Colon cancer organoid
# test.name: Identification of compartment-specific drug sensitivities in O20 CRC organoid-stroma F20 CAF co-cultures. Organoid is transduced with Lucferase2-P2A-EGFP lentivirus, fibroblast with Renilla-dsRed lentivirus. Dual-Glo Luciferase assay is used to report viability data.
# Type: functional, Homo sapiens
# Design: dose or concentration left out as unconfirmed
# condition.parameters: Transduced with Lucferase2-P2A-EGFP lentivirus
measured.parameter: Cell Viability (%)
Output spec: scalar in %, unitless text.

API: value(readout=Cell Viability, system=Colon cancer organoid) for record COc1ccccc1C(=O)Nc1cc2c(cc1N1CCCC1)n(C)c(=O)n2C
114.161

Recall the recorded Cell Viability for COc1ccc2c(O[C@@H]3C[C@H]4C(=O)N[C@]5(C(=O)O)CC5/C=C\CCCCC[C@H](NC(=O)OC5CCCC5)C(=O)N4C3)cc(-c3csc(NC(=O)C(C)C)n3)nc2c1C (stereo not given in full) with Colon cancer organoid and state it.
95.5192

Tell me reported Cell Viability for Cc1c(C(=O)O)cc(-c2ccc(C3CCNCC3)cc2)c2ccc(-c3ccc(C(F)(F)F)cc3)cc12.Cl , tested with Colon cancer organoid.
115.772

Given the entry Cc1ncsc1-c1ccc(CNC(=O)[C@@H]2C[C@@H](O)CN2C(=O)[C@@H](NC(=O)CCCCNC(=O)c2ccc(-c3ccc(N4CCN(C)CC4)c(NC(=O)c4c[nH]c(=O)cc4C(F)(F)F)c3)cc2)C(C)(C)C)cc1 , what Cell Viability was observed with Colon cancer organoid?
172.591

Request: Cell Viability, test system Colon cancer organoid, entry CO[C@H]1CNC[C@@H](OCC2CCC(F)(F)CC2)[C@@H]1Nc1ncc(-c2cncc(C)c2)c2cc(C)c(=O)[nH]c12
171.771

Find Cell Viability (Colon cancer organoid) for the entry CCCCNNC(=O)c1ccc(Br)cc1
131.97

// map Cc1nc(N2CC[C@H](O)C2)ncc1-c1cc(C(F)(F)F)cc2[nH]ncc12 to recorded Cell Viability (system: Colon cancer organoid)
47.2711

Which Cell Viability is reported with Colon cancer organoid for this entry: Cc1cn(-c2cc(NC(=O)c3ccc4c(c3)CN(c3cncnc3)C[C@@H]4C)cc(C(F)(F)F)c2)cn1 ?
88.3808

# query: Cell Viability | item O=C(Nc1cccnn1)N1CCC(=Cc2cccc(Oc3ccc(C(F)(F)F)cn3)c2)CC1 | system: Colon cancer organoid
75.4997

Form field: Cell Viability recorded for Cc1ccc2nc(CNCCCOc3ccccc3)cc(O)c2c1 with Colon cancer organoid (enter value)
115.834
